assay explanation: 6-p-toluidinyl-naphthalene-2-sulfonate (TNS) assay, apparent pKa of the LNPs
Type: physicochemical
condition context: TNS fluorescence titration pH 2.5 to 8.5, fully formulated LNP
reported property: LNP pKa

// known answers, use as guide
| compound | LNP pKa |
| --- | --- |
| CCCCCCCCCCSCC(COC(=O)CCN(CCCN(CCCC)CCCC)CCC(=O)OCC(CSCCCCCCCCCC)SCCCCCCCCCC)SCCCCCCCCCC (centres unmarked) | low pKa values |
| CCCCCCCCCCSCC(COC(=O)CCN(CCCn1ccnc1)CCC(=O)OCC(CSCCCCCCCCCC)SCCCCCCCCCC)SCCCCCCCCCC (centres unmarked) | low LNP pKa values |
| CCCCCCCCCCSCC(COC(=O)CCN(CCCN1CCCN(C)CC1)CCC(=O)OCC(CSCCCCCCCCCC)SCCCCCCCCCC)SCCCCCCCCCC (centres unmarked) | low pKa values |
| CCCCCCCCCCSCC(COC(=O)CCN(CCC(=O)OCC(CSCCCCCCCCCC)SCCCCCCCCCC)CCc1ccccn1)SCCCCCCCCCC (centres unmarked) | low LNP pKa values |

Read the next record carefully.
Prompt line: # query: LNP pKa of entry CCCCCCCCCCSCC(COC(=O)CCN(CCC(=O)OCC(CSCCCCCCCCCC)SCCCCCCCCCC)CCN(C(C)C)C(C)C)SCCCCCCCCCC (centres unmarked)
Response line: low pKa values

###

assay explanation: 6-p-toluidinyl-naphthalene-2-sulfonate (TNS) assay, apparent pKa of the LNPs
Type: physicochemical
condition context: TNS fluorescence titration pH 2.5 to 8.5, fully formulated LNP
reported property: LNP pKa

| compound | obs value |
| --- | --- |
| CCCCCCCCCCSCC(COC(=O)CCN(CCC(=O)OCC(CSCCCCCCCCCC)SCCCCCCCCCC)C1CCN(Cc2ccccc2)C1)SCCCCCCCCCC (stereo not drawn) [I-30] | low LNP pKa values |
| CCCCCCCCCCSCC(COC(=O)CCN(CCC(=O)OCC(CSCCCCCCCCCC)SCCCCCCCCCC)C1CCN(Cc2ccccc2)CC1)SCCCCCCCCCC (stereo not drawn) [I-29] | low LNP pKa values |
| CCCCCCCCCCSCC(COC(=O)CCN(CCC(=O)OCC(CSCCCCCCCCCC)SCCCCCCCCCC)CCN1CCS(=O)(=O)CC1)SCCCCCCCCCC (stereo not drawn) [I-28] | low LNP pKa values |
